- measured-target: T1, SA2 (STAG2) (UniProt Q8N3U4 1-1231)
- T1 sequence: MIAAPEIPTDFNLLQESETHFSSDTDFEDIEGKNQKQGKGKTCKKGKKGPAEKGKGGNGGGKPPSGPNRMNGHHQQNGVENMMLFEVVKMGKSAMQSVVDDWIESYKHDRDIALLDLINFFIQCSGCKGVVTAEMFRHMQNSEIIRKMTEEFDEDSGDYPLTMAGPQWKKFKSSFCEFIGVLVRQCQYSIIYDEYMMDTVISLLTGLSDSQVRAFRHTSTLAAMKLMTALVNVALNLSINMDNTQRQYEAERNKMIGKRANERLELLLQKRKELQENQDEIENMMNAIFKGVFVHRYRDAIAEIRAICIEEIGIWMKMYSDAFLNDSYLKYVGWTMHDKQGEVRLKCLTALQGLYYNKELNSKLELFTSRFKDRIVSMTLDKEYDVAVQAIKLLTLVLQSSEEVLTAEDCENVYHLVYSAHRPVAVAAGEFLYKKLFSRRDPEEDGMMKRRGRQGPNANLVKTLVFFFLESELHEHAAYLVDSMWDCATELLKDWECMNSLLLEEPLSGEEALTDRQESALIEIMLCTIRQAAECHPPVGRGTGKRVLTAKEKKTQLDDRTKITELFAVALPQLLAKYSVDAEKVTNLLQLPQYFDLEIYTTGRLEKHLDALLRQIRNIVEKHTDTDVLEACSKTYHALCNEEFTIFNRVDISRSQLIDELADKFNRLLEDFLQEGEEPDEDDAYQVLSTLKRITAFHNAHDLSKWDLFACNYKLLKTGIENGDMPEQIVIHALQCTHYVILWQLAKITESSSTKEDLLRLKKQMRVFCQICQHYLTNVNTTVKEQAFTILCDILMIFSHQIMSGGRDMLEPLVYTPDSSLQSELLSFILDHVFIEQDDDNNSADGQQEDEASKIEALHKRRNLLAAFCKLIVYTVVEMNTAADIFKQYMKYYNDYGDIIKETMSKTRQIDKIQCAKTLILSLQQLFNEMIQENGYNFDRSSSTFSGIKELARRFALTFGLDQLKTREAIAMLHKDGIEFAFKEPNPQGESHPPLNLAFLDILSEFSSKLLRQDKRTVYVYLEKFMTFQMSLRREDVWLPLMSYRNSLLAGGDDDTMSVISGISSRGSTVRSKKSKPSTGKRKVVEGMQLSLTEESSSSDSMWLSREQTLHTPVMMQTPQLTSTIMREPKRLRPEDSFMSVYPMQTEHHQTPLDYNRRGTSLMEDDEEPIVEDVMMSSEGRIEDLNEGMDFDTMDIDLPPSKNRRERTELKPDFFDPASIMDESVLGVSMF
- experiment: fluorescence anisotropy
# log10 Kd per entry
Parameter value (number): base-10 log of Kd in nM.

[
  {
    "binder": "66 nt RNA-1 (ssRNA) RNA: CUGGAUCCGUACAGUGUAAGGGUGAGUGGUUGGGUGUGUGGGUGUUGAUGUAGAACAAGAAUUCGA",
    "log10 Kd": 0.86
  }
]

Could you tell me which log10 Kd is on file for GCAGCUGGCACGACAGGUAUGAAUC (ssRNA) [25 nt RNA (R-loop oligo)] ? 2.40

Could you tell me which log10 Kd is on file for RNA:DNA hybrid (25 bp) (DNA:RNA) RNA: GCAGCUGGCACGACAGGUAUGAAUC DNA: GATTCATACCTGTCGTGCCAGCTGC ? 1.64

Could you tell me which log10 Kd is on file for CUGGAUCCGUACAGUGUAAGGGUGAGUGGUUGGGUGUGUGGGUGU (ssRNA) [45 nt RNA] ? 1.06
